Attribution: ChEMBL document CHEMBL4229446

- Assay Overview: Cmax in C57BL/6 mouse plasma at 20 mg/kg, iv administered as single dose measured 24 hrs by UPLC-MS/MS analysis
- Format: ADME, organism-based
- Set-up: dose 20 mg/kg, route intravenous
Metric Name: Cmax (ng/mL)
Quick reminder: number only, in ng/mL, skip the unit.

Please give the measured Cmax for this compound: C[C@H](Cc1ccc(OCc2cccc(Cl)c2)cc1)N(C)CC(=O)O
16600

* * *

- Assay Overview: Apparent half-life of the terminal disposition phase in C57BL/6 mouse brain at 23.4 mg/kg, iv administered as single dose measured 24 hrs by UPLC-MS/MS analysis
- Format: ADME, organism-based
- Experimental Parameters: read-out: t1/2 lambda z (converted)
Metric Name: half-life
Write down the value, and be sure its unit follows.

Please give the measured half-life for this compound: CN(CC(=O)O)[C@H](CC#N)Cc1ccc(OCc2ccc(Cl)c(Cl)c2)cc1
39 min
